In this section, each of the compounds is paired with its reported GI50.
Test system: 786-0
Method: NCI tumour cell line growth inhibition, 48 h
Activity calls are given as the source filed them. Rule as the data show it: active = GI50 up to about 1.1 µM and inactive = higher.
Quantity measured: GI50

CN(C)CCNc1ncnc2[nH]c(-c3ccc4ccccc4c3)nc12 | > 100 µM (inactive)
CC[C@]12C=CCN3CCC4(c5cc(/N=N/c6ccccc6)c(OC)cc5N(C)[C@H]4[C@@](O)(C(=O)OC)[C@@H]1OC(C)=O)[C@@H]32 (stereo not given in full) | 16.9 µM (inactive)
O=C(Nc1ccc(Cl)cc1)NS(=O)(=O)c1coc2cc(F)ccc2c1=O | > 100 µM (inactive)
CC(=O)CCn1ncc(Cl)c(Cl)c1=O | 20.5 µM (inactive)
N#Cc1c(-c2ccccc2)c(CN2CCCCC2)c(=O)n2c1[nH]c1ccccc12 | 27.9 µM (inactive)
C/C(COc1ccccc1)=N\NC(N)=S | > 100 µM (inactive)
CN(Cc1c2ccccc2cc2ccccc12)S(=O)(=O)c1ccc(-c2c3nc(c(-c4ccc(S(=O)(=O)N(C)Cc5c6ccccc6cc6ccccc56)cc4)c4ccc([nH]4)c(-c4ccc(S(=O)(=O)N(C)Cc5c6ccccc6cc6ccccc56)cc4)c4nc(c(-c5ccc(S(=O)(=O)N(C)Cc6c7ccccc7cc7ccccc67)cc5)c5ccc2[nH]5)C=C4)C=C3)cc1 | 53.1 µM (inactive)
COC(=O)c1c2c(c3[nH]c4ccccc4c3c1C(=O)OC)C(=O)C1=C(C2=O)C2(Cl)C(Cl)C(Cl)C1(Cl)C2(Cl)Cl (stereo not given) | 2.68 µM (inactive)
CCOC(=O)c1cc(C2CCN(c3ccccc3)C2=O)c(C(=O)/C=C(/C)N)[nH]1 (stereo not given) | 10.2 µM (inactive)
COc1ccc(/N=N/C(=N/NC(=O)c2ccccc2)c2ccc(N(CCC#N)CCC#N)cc2C)cc1 | 47.5 µM (inactive)
CC(C)=CCC/C(C)=C/CC/C(C)=C/Cc1c(O)c2ccccc2oc1=O | > 100 µM (inactive)
O=C(NCc1ccc2ccc3cccnc3c2n1)c1ccc[n+](Cc2ccccc2)c1 | > 100 µM (inactive)
CCOC(=O)C(NO)C(Sc1ccccc1)c1ccc(OC)cc1 (stereo not given) | > 100 µM (inactive)
COC(=O)CC(C)(N[S+]([O-])c1ccc(C)cc1)c1ccccc1 (stereo not given) | > 100 µM (inactive)
CCCCOC(=O)Nc1ccc(S(=O)(=O)Nc2c(Cl)cccc2Cl)cc1 | 31.3 µM (inactive)
